- assay.explanation: drug combination growth inhibition, ovarian cancer – cell-based, oncology-focused library, rucaparib conditional, profiling panel (AID 1508598)
- experimental.setup: patient-derived ovarian cancer cells, CellTiter-Glo viability, 144 h; at 0.000305 µM; OCI-C5x cells; with rucaparib 10 µM; stronger effect = lower value; 100% = cells with rucaparib alone
Item-by-item account of viability
Numeric only. Scale: %

Examples from the recorded data:
CC(=O)O[C@@]1(C(C)=O)CC[C@H]2[C@@H]3C=C(C)C4=CC(=O)CC[C@]4(C)[C@@H]3CC[C@@]21C: 94.9
COc1cc(Br)c(Nc2nc(-c3c(C)nc4ncccn34)cs2)c(Br)c1: 125
C=CS(=O)(=O)NC1CCN(C(=O)CNc2cc(I)c(Cl)cc2OC)CC1: 129

Alright, here's another molecule for you.
Which viability reading was recorded for the molecule COc1ccc(C2=N[C@@H](c3ccc(Cl)cc3)[C@H](c3ccc(Cl)cc3)N2C(=O)N2CCNC(=O)C2)c(OC(C)C)c1 ?
118

----------
- assay.explanation: viability loss with induced miR-34 in A549 – imaging, A549 dox-inducible miR-34, nuclei and caspase counts, primary screen (AID 1347080)
- experimental.setup: A549 miR-34 inducible, Hoechst nuclei count, 48 h; measured here: relative caspase fold change +Dox/-Dox
Decide by fold change: equal to or exceeding 1 means Met, less means Not met.

Would you say CC(C)(N)c1cn(C2CCN(c3nc(N)nc4nc[nH]c34)CC2)nn1 shows fold change at minimum 1?
Not met

Form field: fold change at least 1? Entry: Cc1ccccc1-n1cc(-c2ccnc(NCCC3(O)CCN(C)CC3)n2)cn1
Met

Exam item: decide whether the reported fold change for Cc1nc2cc(C(=O)N(C)Cc3cc(-c4cccnc4)no3)ccc2s1 is at least 1.
Met

In plain terms: is recorded fold change at least 1 for CNCc1cc(-c2ccccc2F)n(S(=O)(=O)c2cccnc2)c1 ?
Not met

Reported fold change at or above 1? C=C1C(=O)[C@@]23C(O)[C@H]1CCC2[C@]12CO[C@]3(O)C(O)[C@@H]1C(C)(C)CCC2O (stereo partly specified)
Not met

Does the reported fold change for CN(C)C1C(=O)C(C(N)=O)=C(O)[C@@]2(O)C(=O)C3=C(O)c4c(O)ccc(Cl)c4C(O)[C@H]3C[C@@H]12 (stereo partly specified) fall at or above the 1 mark?
Met

----------
# inhibition per record follows
- System: Hepatitis C virus NS3 helicase
- assay.explanation: blockers of NS3h binding to ssDNA – biochemical, fluorescence polarization, LOPAC1280 library, primary screen (AID 687035)
- experimental.setup: Purified HCV NS3 helicase, Cy5-dT15 ssDNA binding fluorescence polarization; stronger effect = higher value; concentration not given here
Active and inactive are the calls of the source. Cut-off read from the data, not from the text of the source: active = inhibition above about 37%; inactive = the rest.

O=c1[nH]c2cc(Cl)ccc2c(O)c1-c1ccc(Oc2ccccc2)cc1: -2% (inactive)

Endpoint output: inhibition of O=C(c1ccc(Cl)cc1)N1CCN(c2ccc([N+](=O)[O-])c3ncccc23)CC1 . Value?
0% (inactive)

Query (compound): OCC1O[C@H](O)C(Cl)C(O)C1O (stereo partly specified) ; field requested: inhibition
-1% (inactive)

Looking for the measured inhibition of Nc1cc(Cl)c(NC2=NCCN2)c(Cl)c1 , can you help?
-4% (inactive)

Please give the measured inhibition for this compound: Fc1ccc(C(OCCCc2cnc[nH]2)c2ccc(F)cc2)cc1
-1% (inactive)

Return reported inhibition; argument: O=c1cc(-c2ccccc2)[nH]c2nc(Cl)ccc12
-3% (inactive)

Which inhibition value is on record for CCNc1nc2c(ncn2[C@H]2C[C@H](O)[C@@H](CO)O2)c(=O)[nH]1 ?
-2% (inactive)

Given the entry CC(=O)/C(C)=N\O , report its measured inhibition.
-1% (inactive)

Look up inhibition for this compound: CN1C2CC(OC(=O)[C@H](CO)c3ccccc3)CC1C1OC12 (stereo partly specified)
-4% (inactive)

inhibition lookup needed for CC(=O)O[C@H]1CC2(C)[C@@H](C[C@@H](O)[C@H]3[C@@]4(C)CC[C@@H](O)[C@@H](C)[C@@H]4CC[C@@]32C)C1=C(CCC=C(C)C)C(=O)O (stereo partly specified) , thanks.
-2% (inactive)

State the recorded inhibition for this entry: Cc1cn([C@H]2C[C@@H](N=[N+]=[N-])[C@@H](CO)O2)c(=O)[nH]c1=O
-1% (inactive)

Look up inhibition: O=C(c1cc(O)c(O)c([N+](=O)[O-])c1)c1ccccc1F
5% (inactive)

# inhibition lookup, item Nc1ccc(N2C(=O)c3ccccc3C2=O)c(Cl)c1
0% (inactive)

Sample COc1cc2c(CCNC(C)=O)c[nH]c2cc1O — what was its inhibition?
-2% (inactive)

# lookup: inhibition of O=C(O)[C@@H]1C[C@@H](C(=O)O)N1
-1% (inactive)

Data request, read-out inhibition, for CN(C)c1nc2c(Br)c(Br)c(Br)c(Br)c2[nH]1
1% (inactive)

Need inhibition, item Cn1cc(C(F)(F)F)nc1-c1ccc(OCC(O)CNCCOc2ccc(O)c(C(N)=O)c2)cc1 (stereo unspecified)
0% (inactive)

So what does the record say about inhibition for Cn1ccnc1 ?
-2% (inactive)

Look up inhibition: CN1CCCC1CCOC(C)(c1ccccc1)c1ccc(Cl)cc1 (stereo unspecified)
-3% (inactive)

For the compound OC[C@H]1O[C@@H](n2cnc3c(NC4CCCC4)ncnc32)C(O)[C@H]1O (stereo partly specified) , what inhibition is on record?
-5% (inactive)

Requested read-out: inhibition. Entry: CC(COc1ccc(/C=C/c2ccccc2)cc1)[N+](C)(C)C (stereo unspecified)
-1% (inactive)

Reported inhibition for Nc1nc(Cl)nc2c1ncn2[C@@H]1O[C@H](COP(=O)(O)OP(=O)(O)OP(=O)(O)O)[C@H](O)C1O (stereo partly specified) : what is it?
37% (active)
